What T/C was measured for each of the following?
Tested on: L1210 leukemia ip in BDF1 mice, survival T/C
Assay: NCI In Vivo Anticancer Drug Screen. Data for tumor model L1210 Leukemia (intraperitoneal) in B6D2F1 (BDF1) mice
Conditions: endpoint: mean survival time; dose: 200.0 mg/kg/injection; schedule: Q01DX009 (ip); vehicle: saline; higher = longer survival
Toxic doses and inconclusive results are not listed.

Query string: Please report T/C for the following compound: COC1=C(CNc2ncnc3nc[nH]c23)CC=CC1
Result string: 97 % of control

Query string: Please report T/C for the following compound: CC1=NN(c2ccc(S(=O)(=O)O)cc2)C(=O)/C1=C\c1c(C)[nH]n(-c2ccc(S(=O)(=O)O)cc2)c1=O
Result string: 106 % of control

Query string: Please report T/C for the following compound: C[N+](C)(C)CCP(=O)([O-])O
Result string: 93 % of control

Query string: Please report T/C for the following compound: O=C(CCCN1CCN(c2ccccc2)CC1)c1ccc(F)cc1
Result string: 103 % of control

Query string: Please report T/C for the following compound: O=S(=O)(O)c1ccncc1
Result string: 87 % of control

Query string: Please report T/C for the following compound: CCCCN(C(=O)OCC)P(=O)(OCC)OCC
Result string: 109 % of control

Query string: Please report T/C for the following compound: COCCc1cccc(C)n1
Result string: 92 % of control

Query string: Please report T/C for the following compound: O=S1(=O)C2C=CCC1C(O)CC2 (stereo not drawn)
Result string: 99 % of control

Query string: Please report T/C for the following compound: CC(C)NNC(=O)C(N)CCC(=O)O (stereo not drawn)
Result string: 109 % of control

Query string: Please report T/C for the following compound: Cc1cccc(NC(N)=O)c1
Result string: 94 % of control

Query string: Please report T/C for the following compound: Cn1c(=O)c2c(ncn2CCO)n(C)c1=O
Result string: 100 % of control

Query string: Please report T/C for the following compound: O=C(O)c1ccc(O)c([N+](=O)[O-])c1
Result string: 96 % of control

Query string: Please report T/C for the following compound: O=[N+]([O-])c1cc(C=Nc2ccccc2)ccc1Cl
Result string: 108 % of control

Reference source for all entries: PubChem BioAssay AID248
